target: human DGKα (Homo sapiens); construct: TVMV protease cleavage site (C); Hexa-His (C); made in house; host or cells: Sf9 insect cells (baculovirus, Bac-to-Bac); test: DGKα LIPGLO assay (extruded liposome substrate), in vitro DGK inhibition; assay type: biochemical; conditions: liposome (LIPGLO) assay; read-out: DGKa LIPGLO IC50
Sequence (P23743 with tags, fused parts or gaps): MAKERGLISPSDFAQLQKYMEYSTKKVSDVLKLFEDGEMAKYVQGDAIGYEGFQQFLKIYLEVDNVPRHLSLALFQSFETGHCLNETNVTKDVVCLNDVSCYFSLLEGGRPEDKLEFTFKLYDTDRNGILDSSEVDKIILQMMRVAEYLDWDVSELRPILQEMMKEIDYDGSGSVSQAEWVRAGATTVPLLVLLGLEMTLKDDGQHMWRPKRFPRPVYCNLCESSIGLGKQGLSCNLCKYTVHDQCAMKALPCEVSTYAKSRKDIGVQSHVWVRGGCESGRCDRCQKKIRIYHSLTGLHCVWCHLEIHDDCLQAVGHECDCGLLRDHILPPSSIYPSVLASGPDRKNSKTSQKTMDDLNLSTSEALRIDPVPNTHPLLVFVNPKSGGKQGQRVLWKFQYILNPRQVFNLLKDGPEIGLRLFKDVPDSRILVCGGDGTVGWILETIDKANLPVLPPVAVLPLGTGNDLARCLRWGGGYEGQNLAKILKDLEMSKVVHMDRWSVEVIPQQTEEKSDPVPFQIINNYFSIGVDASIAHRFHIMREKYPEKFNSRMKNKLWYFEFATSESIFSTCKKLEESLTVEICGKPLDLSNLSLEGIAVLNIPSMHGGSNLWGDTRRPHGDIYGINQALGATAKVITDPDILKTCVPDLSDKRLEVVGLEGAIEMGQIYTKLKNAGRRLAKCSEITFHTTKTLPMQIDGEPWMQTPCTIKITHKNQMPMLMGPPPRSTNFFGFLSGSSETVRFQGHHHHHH
Result Type: pIC50
Here pIC50 is given on a logarithmic scale as minus log10 of the concentration in mol/L.

The examples below pair each entry with its known result.
Query block: Any idea what pIC50 was measured for CC[C@@H]1CN(c2cc(=O)n(C)c3ccc(C#N)nc23)[C@@H](C)CN1C(C)c1ccc(OC(C)C)cc1 (single isomer, unassigned) [Example 1348] ?
Result block: 6.96

Query block: Another compound to look at: CCC(c1ccc(F)c(F)c1)N1C[C@H](C)N(c2cc(=O)n(C)c3ccc(C#N)nc23)C[C@H]1C (single isomer, unassigned) [Example 411]
Result block: 4.66

Continuing:
Query block: Any idea what pIC50 was measured for C[C@H]1CN(C(c2ccc(F)cc2)c2ccc(F)cc2)[C@H](CNS(C)(=O)=O)CN1c1cc(=O)n(C)c2ccc(C#N)nc12 [Example 1410] ?
Result block: 4.66

Query block: Another compound to look at: Cc1cccc(C(c2ccc(F)cc2)N2C[C@H](C)N(c3cc(=O)n(C)c4ccc(C#N)nc34)C[C@H]2C)n1 (single isomer, unassigned) [Example 204]
Result block: 5.89

Query block: Another compound to look at: CC(c1cc(F)c(F)c(F)c1)N1C[C@H](C)N(c2cc(=O)n(C)c3ccc(C#N)nc23)C[C@H]1C (single isomer, unassigned) [Example 1240]
Result block: 5.46

Query block: Another compound to look at: Cn1c(=O)c(C#N)c(N2CCN(C(c3ccc(F)cc3)c3ccc(F)cc3)C(C(=O)O)C2)c2nc(C#N)ccc21 (single isomer, unassigned) [Example 54]
Result block: 3.70
